Some compounds, each annotated with its measured pIC50.
- System: M. tuberculosis LP-FQ-RM9
- Type: cell-based, Mycobacterium tuberculosis
- testContext: read-out: Antituberculosis activity M. tuberculosis LP-FQ-RM9 IC50
Just the number, please; pIC50 means minus log10 of the concentration in mol/L.

{"columns": ["smilesRepr", "measuredTarget", "pIC50"],
 "data": [
  ["COc1ccc2nccc(CCN3CCC(NCc4ccc(I)c(F)c4)CC3)c2n1", "M. tuberculosis LP-FQ-RM9", 6.38],
  ["COc1ccc2nccc(CCN3CCC(NCc4ccc(Br)c(F)c4)CC3)c2n1", "M. tuberculosis LP-FQ-RM9", 6.42]
]}

Documented pIC50 of COc1ccc2nccc(CCN3CCC(NCc4cc(F)c(Cl)c(F)c4)CC3)c2n1 : 6.54
